Tested on: UACC-62 melanoma
Assay: NCI-60 one-dose screen, 48 h (100 = growth as untreated, 0 = no growth, -100 = all killed)
Details: 10 µM unless noted
The panel holds about 83,000 compounds, 20% with a hit somewhere; the sample as a whole holds those more often.
Kindly return 1 (yes) if reported growth is no lower than 40%; return 0 (no) if it is lower.

Problem: API: above_or_equal(metric=growth, cutoff=40%) for item `N#Cc1c(NC(=O)c2ccco2)[n+]([O-])c2cc(Cl)c(Cl)cc2[n+]1[O-]`
Result: 1 (yes)

Problem: Test whether the compound `O=C(N/N=C/c1cccc(O)c1O)c1ccccc1` records growth of 40% or higher.
Result: 0 (no)

Problem: Would you say `COC(=O)C1(NC(=O)CNC(=O)OCc2ccccc2)CCCC1` shows growth at minimum 40%?
Result: 1 (yes)

Problem: Identify whether the reported growth of the following compound is 40% or greater: `CC(=O)Nc1cc(C(c2ccccc2)c2ccccc2)cc(C(c2ccccc2)c2ccccc2)c1C`
Result: 1 (yes)

Problem: Could you verify whether the entry COc1ccc(C2=NN(C(N)=S)C(c3ccc4c(c3)OCO4)C2)cc1 (stereo unspecified) shows growth of no less than 40%?
Result: 1 (yes)

Problem: Determine whether measured growth meets or exceeds 40% for `COc1cnc2c(c1)C(=O)c1c-2n(CCCNC(C)C)c(=O)c2cc(F)ccc12`
Result: 0 (no)

====

Task for the reader: assign each of the following compounds its reported growth.
Test system: EKVX NSCLC
Assay: NCI-60 one-dose screen, 48 h (100 = growth as untreated, 0 = no growth, -100 = all killed)
Details: 10 µM unless noted
This is part of a sample that, as a whole, favours compounds with a hit. Of some 83,000 tested, about 20% had one in any assay.
Write down the numeric answer in % and omit the unit.

growth reported for this compound `CN1CCC[C@@H]1CCO[C@](C)(c1ccccc1)c1ccc(Cl)cc1` : 69.3

The recorded growth for `COc1cccc(-c2nc(-c3ccc(N)cc3)co2)c1` is 102

Input `O=C1NCCc2c1noc2-c1ccccc1` . Output growth: 97.8

Looking up `Cc1ccc2nc3c(n2c1)C(=O)C(=O)c1ccccc1-3` , I found its growth recorded as -89.6

Looking up `COc1ccc(-c2cnc(SCC(=O)Nc3ccc(-c4nc5ccccc5s4)cc3)n2-c2ccc(OC)cc2)cc1` , I found its growth recorded as 108

====

Test system: RXF 393 renal
Experiment: NCI-60 one-dose screen, 48 h (100 = growth as untreated, 0 = no growth, -100 = all killed)
Conditions: 10 µM unless noted
Compounds without any hit were thinned out: in the full panel of roughly 83,000, 20% have a hit. Calls of active or inactive are those of the source. The calls were made as follows: active = growth percent below 10; inactive = the rest.
Record form. Attribute: growth. Fill in for each entry.

The value of growth measured for the compound COc1cc(C2CC(c3ccc(C)cc3)=NN2C=O)ccc1OCCN(C)C (stereo not drawn) turned out to be 79.8% (inactive)

# growth (compound: `CCCCCc1c(C)[nH]c(/C=C2\N=C(c3ccc[nH]3)C=C2OCc2ccccc2)c1C` ) is -48.8% [100 µM] (active)

Recorded result, `COc1ccc2c(c1)[n+](=O)c(/C=C/C(=O)c1cc(OC)c(OC)c(OC)c1)c(C)n2[O-]` , growth: 38.5% (inactive)

Record summary for COc1ccc(C2=NN(C(C)=O)C(c3cccc(Nc4ccnc5cc(Cl)ccc45)c3)C2)cc1 (stereo not drawn) : reported growth = 51.1% (inactive)

// sample `O=C(c1ccccc1)c1ccc(Oc2ccc([N+](=O)[O-])cc2[N+](=O)[O-])cc1` , its growth was 81.1% (inactive)

Per the records, this compound ( `Cn1cc(NC(=O)Nc2cc(C(=O)O)n(C)c2)cc1C(=O)O` ) has growth equal to 9.73% (active)

growth for `Cc1cc(=O)oc2cc(OCCn3c(C)nn(-c4ccc(Cl)cc4)c3=O)ccc12` is 37.4% (inactive)

Per the record, `NC(=O)NC1(C(=O)O)CCCC1` has growth of 125% (inactive)

Just so you know, measured growth for N#CC1c2ccccc2C=CN1C(=O)N(c1ccccc1)c1ccccc1 (stereo not drawn) came out at 2.13% (active)

Item: CC(=O)N1N=C(c2ccc3c(c2)OCO3)CC1c1c(C)nn(-c2ccccc2)c1N(C)Cc1ccccc1 (stereo not drawn) | growth: 79.2% (inactive)

Sure, the documented growth for `N/C(=N\C(N)=N\c1nc2ccccc2s1)c1ccnc(Cl)c1` is -6.26% (active)

growth recorded for this compound, `COc1cc(/C(Cl)=C/C=C/C(=O)c2c(C)[n+]([O-])c3ccc(Cl)cc3[n+]2[O-])cc(OC)c1OC` , is 47.9% (inactive)

The compound identified as `Cc1cc2c(cc1C)[n+](Cc1ccc3ccccc3n1)cn2Cc1ccc2ccccc2n1` registered its growth at -6.38% (active)

Data point: `CC[N+](CCCCCCCCCC[N+](CC)(c1ccccn1)c1ccccn1)(c1ccccn1)c1ccccn1` ; growth = 46.1% (inactive)

growth reported for this compound COc1cc(/C=C/C(=O)C(C(=O)/C=C/c2ccc(OC(=O)CCNC34CC5CC(CC(C5)C3)C4)c(OC)c2)C(=O)CCNC23CC4CC(CC(C4)C2)C3)ccc1OC(=O)CCNC12CC3CC(CC(C3)C1)C2 (stereo not drawn) : -68.8% (active)

Record summary for `COc1c(O)cc2c(c1CC=C(C)C)OC(=O)c1c(cc(O)c(CC=C(C)C)c1O)O2` : reported growth = -43.5% (active)

// sample `c1ccc(Nc2ccc(Nc3nc(-c4ccccc4)nc4ccccc34)cc2)cc1` , its growth was 83% (inactive)

# compound `Nc1ncnc2c1CN(Cc1ccccc1)CC2` ; its growth = 122% (inactive)

For record `Cc1nn(-c2ccccc2)c2nc(N)c(C3=NCCO3)nc12` the listed growth is 108% (inactive)

Kindly note the recorded growth for `COc1cccc2c1C(=O)c1c(O)c3c(c(O)c1C2=O)C[C@@](O)(C(C)=O)C[C@@H]3O[C@H]1C[C@H](N)[C@H](O)[C@H](C)O1` , which is -65.1% (active)

Noted for CC12CCC3C(=CCc4cc(O)ccc43)C1CCC2=O (stereo not drawn) : its growth reads 113% (inactive)

Record `Cn1ccnc1C(=O)/C=C/c1ccc(C(=O)Nc2nc3ccccc3[nH]2)cc1` , field growth: 2.67% (active)

Summary for this compound, `Oc1c(N=Nc2nn[nH]n2)ccc2ccccc12` : growth is 87.4% (inactive)

So, Fc1ccccc1C1c2ccccc2-c2nccn21 (stereo not drawn) ? Its growth was -1.68% (active)

`Clc1ccc2[nH]cc(-c3cncn3CCc3ccccc3)c2c1` yielded growth of 52.3% (inactive)

Looking up `N=C1c2nc3n(c2C(=O)c2nc4n(c21)CCCCC4)CCCCC3` , I found its growth recorded as 102% (inactive)

Entry `C[C@@H]1CN(c2nc3c(cc2F)c(=O)c(C(=O)O)cn3C(C)(C)C)C[C@H](C)N1` , growth reported as -17.3% (active)

The compound listed as `Cc1ccc(-c2c3c(N)nc(-c4ccncc4)nc3nc3c2c(C)nn3-c2ccccc2)cc1` has a reported growth of 45.6% (inactive)

Value of measured growth for the entry `[N-]=[N+]=NCc1cccc(/C(O)=C/C(=O)C(=O)O)c1` : 24.6% (inactive)

// growth lookup, compound = CCCCCCC(CC#N)(CCC)CCCC (stereo not drawn) , result: 106% (inactive)

Measured growth of CC1C(=O)NC2=Nc3ccccc3C(=O)NN21 (stereo not drawn) : 116% (inactive)

growth for `O=c1ncc(-c2ccc(C(F)(F)F)cc2)c(NC2CCCCCC2)[nH]1` is 76.4% (inactive)

`Cc1n(Cc2ccc3ccccc3c2)cc[n+]1Cc1ccc2ccccc2c1` has a reported growth of 3.41% (active)

====

System: OVCAR-3 ovarian
Test: NCI-60 one-dose screen, 48 h
Details: 10 µM unless noted
This is part of a sample that, as a whole, favours compounds with a hit. Of some 83,000 tested, about 20% had one in any assay. The source made the active and inactive calls. The calls were made as follows: active = growth percent below 10; inactive = the rest.
Write down the outcome that applies. Available outcomes: active, inactive

Problem: Recorded call for CC(C)=CCCC(C)c1ccc(C)c2c1OCN(CC1CCNCC1)C2 (stereo unspecified) ?
Result: inactive

Problem: Per the records of this test, what outcome belongs to CCN1CC2=C(Nc3nc(SC)[nH]c(=O)c3C2c2cc(OC)c(OC)c(OC)c2)/C(=C/c2cc(OC)c(OC)c(OC)c2)C1 (stereo unspecified) ?
Result: inactive

Problem: State the result this test recorded for `C/C(=C\CCc1ccoc1)CC/C=C(\C)CCCNc1ccc(F)cc1` .
Result: inactive

Problem: Query: recorded result category for CCOC(=O)C1=CCC(n2cc(C)c(=O)[nH]c2=O)O1 (stereo unspecified) in this test
Result: inactive

Problem: # fetch the recorded call for CC1CC=CCC1C1OCC(C)(C)CO1 (stereo unspecified) here
Result: inactive

Problem: What is the recorded call for this molecule in the test? `COc1ccc2c(c1)sc1nc(-c3ccc(N(C)C)cc3)cn12`
Result: inactive

Problem: What was the test verdict on `O=C(Nc1ccc2c(c1)C(=O)c1ccccc1-2)c1ccccc1` ?
Result: inactive

Problem: Each molecule tested received a call. Report the one for CC(NC(=O)Oc1cccc2ccccc12)c1ccccc1 (stereo unspecified) .
Result: inactive

Problem: What was the test verdict on BrC1CC(Br)c2c1c1c(c3c2C(Br)CC3Br)C(Br)CC1Br (stereo unspecified) ?
Result: inactive

Problem: I would be grateful if you could indicate the recorded call for `NC(=O)NC1(C(=O)O)CCCC1` .
Result: inactive

Problem: I would be grateful if you could indicate the recorded call for `CCOc1nc(-c2ccco2)n2nc(-c3ccco3)cc2n1` .
Result: inactive

Problem: Please let me know the test result on file for `O=C(N/N=C/c1cccc([N+](=O)[O-])c1)c1ccc(Br)o1` .
Result: inactive

Problem: Called result for `Cc1[nH]ccc2cc3nc4ccccc4c3cc12`
Result: inactive

Problem: Could you kindly confirm the outcome this assay logged for `CC(=O)Nc1ccc(C(=O)COc2ccc(/C=C3\CCc4ccccc4C3=O)cc2)cc1` ?
Result: inactive

Problem: Status in this test for `CCN1CCN(c2nc(NNC(=O)Cc3ccccc3)nc(N3CCN(C(c4ccccc4)c4ccccc4)CC3)n2)CC1` ?
Result: inactive

Problem: // outcome(item) with item = `COc1ccc2c(c1)[n+](=O)c(/C=C/C(=O)c1cc(OC)c(OC)c(OC)c1)c(C)n2[O-]`
Result: inactive

Problem: Hello, I am checking results. What call was entered for `Oc1ccccc1/C=N/N1CCCCCC1` ?
Result: inactive

Problem: Could you kindly confirm the outcome this assay logged for `COc1cc(C(=O)/C=C/c2cccc(Nc3ccnc4cc(Cl)ccc34)c2)cc(OC)c1OC` ?
Result: active

Problem: Fill in: this test's call for `COC(=O)[C@H](CCCCNC(=O)OCc1ccccc1)NC(=O)[C@@H](NC(=O)Nc1cc(C(F)(F)F)cc(C(F)(F)F)c1)C(C)C` is ___
Result: active

Problem: Kindly provide the recorded test outcome for the following molecule: `O=C(c1ccccc1)c1ccc(Oc2ccc([N+](=O)[O-])cc2[N+](=O)[O-])cc1`
Result: inactive

Problem: # lookup: test call for `COc1cc(/C=C2\SC(N3CCCCC3)=NC2=O)ccc1OCCCCCCOc1ccc(/C=C2\SC(N3CCCCC3)=NC2=O)cc1OC`
Result: active
